molecular target: DNA topoisomerase II (Homo sapiens) (UniProt P11388+Q02880); test: Inhibitory activity against human DNA topoisomerase II; assay type: protein assay

[
  {
    "itemSmiles": "COc1cc([C@@H]2c3cc4c(cc3[C@@H](Nc3cccnc3)[C@H]3COC(=O)[C@H]23)OCO4)cc(OC)c1O",
    "assaySystem": "DNA topoisomerase II (Homo sapiens) (UniProt P11388+Q02880)",
    "ID50": "50 µM"
  },
  {
    "itemSmiles": "COc1cc([C@@H]2c3cc4c(cc3[C@@H](Nc3ccc5c(c3)OCO5)[C@H]3COC(=O)[C@H]23)OCO4)cc(OC)c1O",
    "assaySystem": "DNA topoisomerase II (Homo sapiens) (UniProt P11388+Q02880)",
    "ID50": "50 µM"
  },
  {
    "itemSmiles": "COc1cc([C@@H]2c3cc4c(cc3[C@@H](Nc3cnc5ccccc5c3)[C@H]3COC(=O)[C@H]23)OCO4)cc(OC)c1O",
    "assaySystem": "DNA topoisomerase II (Homo sapiens) (UniProt P11388+Q02880)",
    "ID50": "50 µM"
  },
  {
    "itemSmiles": "COc1ccc(N[C@@H]2c3cc4c(cc3[C@@H](c3cc(OC)c(O)c(OC)c3)[C@H]3C(=O)OC[C@@H]32)OCO4)cc1OC",
    "assaySystem": "DNA topoisomerase II (Homo sapiens) (UniProt P11388+Q02880)",
    "ID50": "25 µM"
  },
  {
    "itemSmiles": "COc1cc([C@@H]2c3cc4c(cc3[C@@H](Nc3cccc(C#N)c3)[C@H]3COC(=O)[C@H]23)OCO4)cc(OC)c1O",
    "assaySystem": "DNA topoisomerase II (Homo sapiens) (UniProt P11388+Q02880)",
    "ID50": "25 µM"
  },
  {
    "itemSmiles": "COc1cc([C@@H]2c3cc4c(cc3[C@@H](Nc3ccc5c(c3)OCCO5)[C@H]3COC(=O)[C@H]23)OCO4)cc(OC)c1O",
    "assaySystem": "DNA topoisomerase II (Homo sapiens) (UniProt P11388+Q02880)",
    "ID50": "10 µM"
  },
  {
    "itemSmiles": "COc1cc([C@@H]2c3cc4c(cc3[C@@H](Nc3cccc(N)c3)[C@H]3COC(=O)[C@H]23)OCO4)cc(OC)c1O",
    "assaySystem": "DNA topoisomerase II (Homo sapiens) (UniProt P11388+Q02880)",
    "ID50": "25 µM"
  },
  {
    "itemSmiles": "COC(=O)c1cc(N[C@@H]2c3cc4c(cc3[C@@H](c3cc(OC)c(O)c(OC)c3)[C@H]3C(=O)OC[C@@H]32)OCO4)cc(C(=O)OC)c1",
    "assaySystem": "DNA topoisomerase II (Homo sapiens) (UniProt P11388+Q02880)",
    "ID50": "25 µM"
  },
  {
    "itemSmiles": "COc1cc([C@@H]2c3cc4c(cc3[C@@H](Nc3cccc([N+](=O)[O-])c3)[C@H]3COC(=O)[C@H]23)OCO4)cc(OC)c1O",
    "assaySystem": "DNA topoisomerase II (Homo sapiens) (UniProt P11388+Q02880)",
    "ID50": "50 µM"
  },
  {
    "itemSmiles": "CCOC(=O)c1ccccc1N[C@@H]1c2cc3c(cc2[C@@H](c2cc(OC)c(O)c(OC)c2)[C@H]2C(=O)OC[C@@H]21)OCO3",
    "assaySystem": "DNA topoisomerase II (Homo sapiens) (UniProt P11388+Q02880)",
    "ID50": "> 100 µM"
  },
  {
    "itemSmiles": "COc1cc([C@@H]2c3cc4c(cc3[C@@H](Nc3cc([N+](=O)[O-])ccc3O)[C@H]3COC(=O)[C@H]23)OCO4)cc(OC)c1O",
    "assaySystem": "DNA topoisomerase II (Homo sapiens) (UniProt P11388+Q02880)",
    "ID50": "> 100 µM"
  },
  {
    "itemSmiles": "COc1cc([C@@H]2c3cc4c(cc3[C@@H](Nc3ccc(F)cc3)[C@H]3COC(=O)[C@H]23)OCO4)cc(OC)c1O",
    "assaySystem": "DNA topoisomerase II (Homo sapiens) (UniProt P11388+Q02880)",
    "ID50": "5 µM"
  },
  {
    "itemSmiles": "COc1cc([C@@H]2c3cc4c(cc3[C@@H](Nc3ccc(C#N)cc3)[C@H]3COC(=O)[C@H]23)OCO4)cc(OC)c1O",
    "assaySystem": "DNA topoisomerase II (Homo sapiens) (UniProt P11388+Q02880)",
    "ID50": "10 µM"
  },
  {
    "itemSmiles": "COc1cc([C@@H]2c3cc4c(cc3[C@@H](Oc3ccc(O)cc3)[C@H]3COC(=O)[C@H]23)OCO4)cc(OC)c1O",
    "assaySystem": "DNA topoisomerase II (Homo sapiens) (UniProt P11388+Q02880)",
    "ID50": "50 µM"
  }
]

----------
This section presents molecules with their documented ID50 values.
target: DNA topoisomerase II (Homo sapiens) (UniProt P11388+Q02880); assay: Inhibitory activity against human DNA topoisomerase II; format: protein assay

[
  {
    "itemSmiles": "COc1cc([C@@H]2c3cc4c(cc3[C@@H](Nc3cc(N)ccc3O)[C@H]3COC(=O)[C@H]23)OCO4)cc(OC)c1O",
    "ID50": "> 100 µM"
  },
  {
    "itemSmiles": "COc1cc([C@@H]2c3cc4c(cc3[C@@H](Nc3cc(C(F)(F)F)cc(C(F)(F)F)c3)[C@H]3COC(=O)[C@H]23)OCO4)cc(OC)c1O",
    "ID50": "> 100 µM"
  },
  {
    "itemSmiles": "COc1cc([C@@H]2c3cc4c(cc3[C@@H](Sc3ccc(O)cc3)[C@H]3COC(=O)[C@H]23)OCO4)cc(OC)c1O",
    "ID50": "> 100 µM"
  }
]
